- SYSTEM_TESTED: PRC2 containing wt EZH2 (Homo sapiens)
- Construct: made in house
- Sequence (Q15910 whole entry): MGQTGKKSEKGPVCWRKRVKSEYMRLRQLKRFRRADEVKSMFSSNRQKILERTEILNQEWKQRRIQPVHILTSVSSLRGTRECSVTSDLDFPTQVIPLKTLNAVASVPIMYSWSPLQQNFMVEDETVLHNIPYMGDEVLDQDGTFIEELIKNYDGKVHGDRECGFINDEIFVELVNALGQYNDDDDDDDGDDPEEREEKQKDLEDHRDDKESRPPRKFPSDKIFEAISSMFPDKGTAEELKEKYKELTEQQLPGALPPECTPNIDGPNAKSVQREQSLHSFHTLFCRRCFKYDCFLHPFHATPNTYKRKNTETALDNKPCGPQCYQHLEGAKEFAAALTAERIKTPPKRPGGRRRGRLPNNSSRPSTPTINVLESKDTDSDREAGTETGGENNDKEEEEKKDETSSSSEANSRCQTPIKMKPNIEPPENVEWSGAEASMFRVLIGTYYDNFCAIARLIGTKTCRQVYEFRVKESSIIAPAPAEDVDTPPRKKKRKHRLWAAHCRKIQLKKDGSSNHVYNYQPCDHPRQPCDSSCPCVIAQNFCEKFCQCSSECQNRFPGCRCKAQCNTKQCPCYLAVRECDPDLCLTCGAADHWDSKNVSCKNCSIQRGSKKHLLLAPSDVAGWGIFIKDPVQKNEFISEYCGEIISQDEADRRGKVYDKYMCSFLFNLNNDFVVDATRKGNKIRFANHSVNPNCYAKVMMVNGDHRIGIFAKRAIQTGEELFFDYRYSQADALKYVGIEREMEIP
- Sequence (O75530 whole entry partner): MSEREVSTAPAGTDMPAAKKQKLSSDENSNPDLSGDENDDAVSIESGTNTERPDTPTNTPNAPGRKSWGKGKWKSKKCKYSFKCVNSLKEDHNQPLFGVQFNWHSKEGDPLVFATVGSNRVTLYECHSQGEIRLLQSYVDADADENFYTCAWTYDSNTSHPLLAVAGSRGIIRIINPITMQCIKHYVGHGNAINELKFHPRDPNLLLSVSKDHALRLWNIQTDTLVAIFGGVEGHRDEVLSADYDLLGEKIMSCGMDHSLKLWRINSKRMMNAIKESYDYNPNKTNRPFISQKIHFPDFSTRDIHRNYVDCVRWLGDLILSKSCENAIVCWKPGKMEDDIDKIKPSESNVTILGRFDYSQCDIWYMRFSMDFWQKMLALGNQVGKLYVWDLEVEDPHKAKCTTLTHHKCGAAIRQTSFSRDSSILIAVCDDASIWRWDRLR
- Sequence (Q15022 whole entry partner): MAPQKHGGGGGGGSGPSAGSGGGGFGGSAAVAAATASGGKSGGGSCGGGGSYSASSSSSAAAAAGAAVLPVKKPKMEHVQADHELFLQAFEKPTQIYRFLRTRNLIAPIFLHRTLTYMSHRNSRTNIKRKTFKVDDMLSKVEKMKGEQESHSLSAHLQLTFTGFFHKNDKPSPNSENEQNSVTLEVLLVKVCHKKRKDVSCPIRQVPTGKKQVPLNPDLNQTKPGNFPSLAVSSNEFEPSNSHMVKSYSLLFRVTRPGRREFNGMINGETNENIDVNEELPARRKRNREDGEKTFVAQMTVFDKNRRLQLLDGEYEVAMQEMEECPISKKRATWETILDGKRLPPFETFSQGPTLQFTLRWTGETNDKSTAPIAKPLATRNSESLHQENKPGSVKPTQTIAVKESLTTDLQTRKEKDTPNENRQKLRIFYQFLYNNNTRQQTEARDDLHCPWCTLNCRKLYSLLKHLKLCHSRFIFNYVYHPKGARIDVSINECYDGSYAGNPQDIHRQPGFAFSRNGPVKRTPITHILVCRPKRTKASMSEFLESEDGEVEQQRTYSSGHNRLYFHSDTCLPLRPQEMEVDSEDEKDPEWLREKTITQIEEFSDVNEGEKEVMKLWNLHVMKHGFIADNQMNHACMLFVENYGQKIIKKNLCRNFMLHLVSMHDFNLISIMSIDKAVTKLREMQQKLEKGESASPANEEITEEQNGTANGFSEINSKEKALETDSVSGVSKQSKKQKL
- Sequence (Q09028 whole entry partner): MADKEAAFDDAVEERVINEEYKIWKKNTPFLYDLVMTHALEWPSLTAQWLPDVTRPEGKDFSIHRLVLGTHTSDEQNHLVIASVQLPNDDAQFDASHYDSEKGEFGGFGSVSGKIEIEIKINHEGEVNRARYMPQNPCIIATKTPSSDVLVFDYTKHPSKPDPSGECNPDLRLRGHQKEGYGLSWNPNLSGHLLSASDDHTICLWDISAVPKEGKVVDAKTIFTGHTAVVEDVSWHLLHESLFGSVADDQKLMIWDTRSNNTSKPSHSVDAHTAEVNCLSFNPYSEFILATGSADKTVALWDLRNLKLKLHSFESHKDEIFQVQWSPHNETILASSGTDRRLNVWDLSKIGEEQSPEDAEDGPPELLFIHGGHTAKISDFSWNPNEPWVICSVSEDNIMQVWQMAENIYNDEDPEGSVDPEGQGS
- Sequence (Q6ZN18 whole entry partner): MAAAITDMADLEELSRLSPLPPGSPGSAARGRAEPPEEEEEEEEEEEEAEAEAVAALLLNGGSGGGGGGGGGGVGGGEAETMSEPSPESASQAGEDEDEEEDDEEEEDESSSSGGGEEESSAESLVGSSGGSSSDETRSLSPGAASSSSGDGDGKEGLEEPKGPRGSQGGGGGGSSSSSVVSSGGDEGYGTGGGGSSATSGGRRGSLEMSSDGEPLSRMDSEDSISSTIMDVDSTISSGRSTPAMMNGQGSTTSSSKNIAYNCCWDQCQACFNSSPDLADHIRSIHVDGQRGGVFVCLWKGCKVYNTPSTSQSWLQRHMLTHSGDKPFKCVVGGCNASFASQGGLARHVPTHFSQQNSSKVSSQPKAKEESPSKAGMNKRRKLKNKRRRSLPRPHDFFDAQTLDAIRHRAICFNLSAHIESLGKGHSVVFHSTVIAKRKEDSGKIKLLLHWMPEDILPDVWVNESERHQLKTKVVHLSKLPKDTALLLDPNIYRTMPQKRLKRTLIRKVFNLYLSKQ
- EXPERIMENTAL_DETAILS: EZH2 pep BSA Brij 4.0 LowE (IC50): 3H-SAM incorporation into biotinylated H3 peptide
- Assay type: biochemical
- PROTOCOL_CONDITIONS: EZH2 pep BSA Brij 4.0 LowE (IC50), 20 pM PRC2 wt EZH2, 0.9 μM 3H-SAM, biotinylated H3 peptide substrate, 2 μM H3K27me3 activating peptide
pIC50: −log10 of the molar value.
MEASUREMENT_KIND: pIC50

COMPOUND	SYSTEM_TESTED	pIC50
CCS(=O)(=O)N1CCC(C(C)n2c(C)c(C(=O)NCc3c(OC)cc(C)[nH]c3=O)c3ccccc32)CC1C (stereo not shown) [Compound 94]	PRC2 containing wt EZH2 (Homo sapiens)	6.00 to 7.00
CCc1cc(C)[nH]c(=O)c1CNC(=O)c1c(C)n(C(C)C2CCNC(C(F)(F)F)C2)c2ccccc12 (stereo not shown) [Compound 5]	PRC2 containing wt EZH2 (Homo sapiens)	> 7.00

# pIC50 (compound: CCC1CC(C(C)n2c(C)c(C(=O)NCc3c(C)cc(C)[nH]c3=O)c3ccccc32)CCN1CC(F)F (stereo not shown) [Compound 67] ) is > 7.00

Notebook: Cc1cc(C)c(CNC(=O)c2c(C)n(C(C)C3CCN(CC(C)(F)F)C(C)C3)c3ccccc23)c(=O)[nH]1 (stereo not shown) [Compound 58] , pIC50 read as > 7.00

Please fill in: pIC50 reported for CCCc1cc(C)[nH]c(=O)c1CNC(=O)c1c(C)n(C(C)C2CCNC(C(F)(F)F)C2)c2ccccc12 (stereo not shown) [Compound 6] = > 7.00

pIC50 measured on CCC1CC(C(C)n2c(C)c(C(=O)NCc3c(OC)cc(C)[nH]c3=O)c3ccccc32)CCN1CC(F)F (stereo not shown) [Compound 54] = > 7.00

The reported pIC50 of the compound COc1cc(C)[nH]c(=O)c1CNC(=O)c1c(C)n(C(C)C2CCNC(CC(F)(F)F)C2)c2ccccc12 (stereo not shown) [Compound 87] was 6.00 to 7.00

* * *

- EXPERIMENTAL_DETAILS: Plasma-tissue distribution and glucuronide formation in BALB/C mice
- Type: in vivo
- PROTOCOL_CONDITIONS: mouse, plasma; male BALB/C mice, oral gavage 100 mg/kg, 1 hour after dosing; read-out: Conc. in Plasma
MEASUREMENT_KIND: concentration at 1 h (ng/mL)
# number only, unit ng/mL dropped from output

The compound COc1cc(C)[nH]c(=O)c1CNC(=O)c1c(C)n(C(C)C2CCN(C)C(C(F)(F)F)C2)c2ccccc12 (single isomer, unassigned) showed concentration at 1 h equal to 8370

* * *

- SYSTEM_TESTED: PRC2 containing wt EZH2 (Homo sapiens)
- Construct: made in house
- EXPERIMENTAL_DETAILS: EZH2 pep BSA Brij 4.0 LowE (IC50): 3H-SAM incorporation into biotinylated H3 peptide
- Type: biochemical
- PROTOCOL_CONDITIONS: 20 pM PRC2 wt EZH2, 0.9 μM 3H-SAM, biotinylated H3 peptide substrate, 2 μM H3K27me3 activating peptide; read-out: EZH2 pep BSA Brij 4.0 LowE (IC50)
pIC50: −log10 of the molar value.
MEASUREMENT_KIND: pIC50

Form field, pIC50 with PRC2 containing wt EZH2 (Homo sapiens), item COc1cc(C)[nH]c(=O)c1CNC(=O)c1c(C)n(C(C)C2CCN(C(C)=O)C(C)C2)c2ccccc12 (centres unmarked) [Compound 78] : > 7.00

pIC50 for PRC2 containing wt EZH2 (Homo sapiens) with input COc1cc(C)[nH]c(=O)c1CNC(=O)c1c(C)n(C(C)C2CCN(C)C(c3ccc(F)cc3)C2)c2ccccc12 (centres unmarked) [Compound 33] equals > 7.00

Short answer on PRC2 containing wt EZH2 (Homo sapiens) for COc1cc(C)[nH]c(=O)c1CNC(=O)c1c(C)n(C(C)C2CCNC(c3cccc(C(F)(F)F)c3)C2)c2ccccc12 (centres unmarked) [Compound 76] , pIC50: > 7.00

The molecule Cc1cc(C)c(CNC(=O)c2c(C)n(C(C)C3CCNC(c4cccc(F)c4)C3)c3ccccc23)c(=O)[nH]1 (centres unmarked) [Compound 53] on PRC2 containing wt EZH2 (Homo sapiens): pIC50 was > 7.00

With PRC2 containing wt EZH2 (Homo sapiens) as the test system, COc1cc(C)[nH]c(=O)c1CNC(=O)c1c(C)n(C(C)C2CCN(C(C)=O)C(CC(F)(F)F)C2)c2ccccc12 (centres unmarked) [Compound 80] showed pIC50 of > 7.00

Let me check: COc1cc(C)[nH]c(=O)c1CNC(=O)c1c(C)n(C(C)C2CCN(C(C)=O)C(CC(F)(F)F)C2)c2ccccc12 (centres unmarked) [Compound 75] , system PRC2 containing wt EZH2 (Homo sapiens), measured pIC50 is > 7.00

Field pIC50 (PRC2 containing wt EZH2 (Homo sapiens)), entry COc1cc(C)[nH]c(=O)c1CNC(=O)c1c(C)n(C(C)C2CCNC(c3cccc(F)c3)C2)c2ccccc12 (centres unmarked) [Compound 65] : > 7.00

Bench note, PRC2 containing wt EZH2 (Homo sapiens): entry COc1cc(C)[nH]c(=O)c1CNC(=O)c1c(C)n(C(C)C2CCN(C)C(c3ccc(F)cc3)C2)c2ccccc12 (single isomer, unassigned) [Compound 35] , its pIC50 = > 7.00

The observed pIC50 for COc1cc(C)[nH]c(=O)c1CNC(=O)c1c(C)n(C(C)C2CCN(C)C(c3cccc(F)c3)C2)c2ccccc12 (centres unmarked) [Compound 57] when tested with PRC2 containing wt EZH2 (Homo sapiens) stands at > 7.00

Bench note, PRC2 containing wt EZH2 (Homo sapiens): entry COc1cc(C)[nH]c(=O)c1CNC(=O)c1c(C)n(C(C)C2CCNC(c3cccc(F)c3)C2)c2ccccc12 (centres unmarked) [Compound 51] , its pIC50 = > 7.00

PRC2 containing wt EZH2 (Homo sapiens) assay, molecule COC(=O)N1CCC(C(C)n2c(C)c(C(=O)NCc3c(OC)cc(C)[nH]c3=O)c3ccccc32)CC1C (centres unmarked) [Compound 79] , recorded pIC50 = > 7.00

PRC2 containing wt EZH2 (Homo sapiens) pIC50 of Cc1cc(C)c(CNC(=O)c2c(C)n(C(C)C3CCN(C)C(c4cccc(F)c4)C3)c3ccccc23)c(=O)[nH]1 (centres unmarked) [Compound 56] is > 7.00

I looked up Cc1cc(C)c(CNC(=O)c2c(C)n(C(C)C3CCN(C)C(c4cccc(F)c4)C3)c3ccccc23)c(=O)[nH]1 (centres unmarked) [Compound 61] and its pIC50 for PRC2 containing wt EZH2 (Homo sapiens) was > 7.00

With PRC2 containing wt EZH2 (Homo sapiens) as the test system, COC(=O)N1CCC(C(C)n2c(C)c(C(=O)NCc3c(OC)cc(C)[nH]c3=O)c3ccccc32)CC1C (centres unmarked) [Compound 82] showed pIC50 of 6.00 to 7.00

Record COc1cc(C)[nH]c(=O)c1CNC(=O)c1c(C)n(C(C)C2CCNC(c3ccc(F)cc3)C2)c2ccccc12 (single isomer, unassigned) [Compound 31] ; system PRC2 containing wt EZH2 (Homo sapiens); pIC50 = > 7.00

Query Cc1cc(C)c(CNC(=O)c2c(C)n(C(C)C3CCNC(c4cccc(F)c4)C3)c3ccccc23)c(=O)[nH]1 (centres unmarked) [Compound 52] on PRC2 containing wt EZH2 (Homo sapiens); pIC50 returned: > 7.00

Reading of pIC50 for COc1cc(C)[nH]c(=O)c1CNC(=O)c1c(C)n(C(C)C2CCN(C)C(c3ccc(F)cc3)C2)c2ccccc12 (single isomer, unassigned) [Compound 34] with PRC2 containing wt EZH2 (Homo sapiens): 6.00 to 7.00
